Reference source: PubChem BioAssay AID732

- Tested on: in vivo angiogenesis, blood vessel count
- test_method_notes: reduction of blood vessel formation in vivo – HTS, in vivo study (AID 732);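 note: zebrafish embryos dosed at one day post fertilization; 0% = reference inhibitor and 100% = plate mean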
- condition_set: hits give low values;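 tested at 30 µM in the well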
observation_type: vessel count % control (%)
One number for each entry, in %.

Example entries begin here.
| compound | experimental_system | vessel count % control / % |
| --- | --- | --- |
| CCC1(c2ccccc2)C(=O)NCNC1=O | in vivo angiogenesis, blood vessel count | 91.4 |
| C[N+](C)(C)CCCCCCCCCC[N+](C)(C)C | in vivo angiogenesis, blood vessel count | 100 |
| C=CCN1CC[C@]23CCCCC2[C@H]1Cc1ccc(O)cc13 (stereo partly specified) | in vivo angiogenesis, blood vessel count | 141 |
| CCNC(=O)C1OC(n2cnc3c(NCc4ccccc4)ncnc32)C(O)C1O (stereo unspecified) | in vivo angiogenesis, blood vessel count | 110 |
| NC(N)=N[C@@H](CCC(=O)O)C(=O)O | in vivo angiogenesis, blood vessel count | 99.2 |

Inquiry: Entry "COCc1nc2c([nH]1)c(=O)n(C)c(=O)n2CC(C)C" has what vessel count % control?
Reply text: 93

====

- System: in vivo angiogenesis, blood vessel count
- test_method_notes: reduction of blood vessel formation in vivo – HTS, in vivo study (AID 732);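 note: zebrafish embryos dosed at one day post fertilization; 0% = reference inhibitor and 100% = plate mean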
- condition_set: hits give low values;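 tested at 30 µM in the well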
observation_type: vessel count % control (%)
Numbers only, in %.

| compound | experimental_result |
| --- | --- |
| N=C(N)c1ccc(N)cc1 | 114 |
| N=c1c[n+](N2CCOCC2)[n-]o1 | 110 |
| COC(=O)N1CCN(C(=O)Cc2ccc(Cl)c(Cl)c2)C(CN2CCCC2)C1 (stereo not drawn) | 116 |
| N#CC(=Cc1ccc(O)c(O)c1)C(N)=S | 118 |

Look at each compound and report its vessel count % control.
1. COC(=O)C1=C(C)NC(C)=C(C(=O)OCCN(C)Cc2ccccc2)C1c1cccc([N+](=O)[O-])c1 (stereo not drawn)
2. CC1(C)NC(=O)N(c2ccc([N+](=O)[O-])c(C(F)(F)F)c2)C1=O
3. NC(CCCCCP(=O)(O)O)C(=O)O (stereo not drawn)

Reply text:
1. 65.5
2. 91.7
3. 113

Could you tell me vessel count % control for each of these compounds? They are listed below.
1. OCCN1CCN(CC/C=C2/c3ccccc3Sc3ccc(C(F)(F)F)cc32)CC1
2. CC(C)(C)NCC(O)COc1nsnc1N1CCOCC1 (stereo not drawn)
3. C[C@@H]1C(=O)NC2=Nc3cccc(Cl)c3CN21
4. N[C@@H](Cn1ccc(=O)[nH]c1=O)C(=O)O
5. CC(=O)Oc1cc(C(C)C)c(OCCN(C)C)cc1C

Reply text:
1. 110
2. 101
3. 119
4. 102
5. 109

State the recorded vessel count % control for every item in the following list.
1. COc1ccc2c(c1)c(CC(=O)N1CCOCC1)c(C)n2C(=O)c1ccc(Cl)cc1
2. N[C@@H]1CONC1=O
3. O=C(O)/C=C/c1cnc[nH]1
4. Cc1nc(N=Nc2cc(S(=O)(=O)O)c3cc([N+](=O)[O-])cc(S(=O)(=O)O)c3c2)c(COP(=O)(O)O)c(C=O)c1O
5. CC12C(=O)OC(=O)C1(C)C1CCC2O1 (stereo not drawn)

Reply text:
1: 55; 2: 90.5; 3: 108; 4: 93.5; 5: 0

Inquiry: Given "COc1ccc2c(c1OC)C(=O)O[C@@H]2[C@H]1c2c(cc3c(c2OC)OCO3)CCN1C" , state its recorded vessel count % control.
Reply text: 127

====

Answer each item with its documented vessel count % control.
- Test system: in vivo angiogenesis, blood vessel count
- test_method_notes: reduction of blood vessel formation in vivo – HTS, in vivo study (AID 732);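 note: zebrafish embryos dosed at one day post fertilization; 0% = reference inhibitor and 100% = plate mean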
- condition_set: hits give low values;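 tested at 30 µM in the well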
Numbers only, in %.

Look over these answered cases.
| compound | result_units | vessel count % control |
| --- | --- | --- |
| CNCCCN1c2ccccc2CCc2ccccc21 | % | 82.9 |
| Cc1ccc(O)c(N=Nc2ccccc2)n1 | % | 112 |
| CO/N=C(\C(=O)N[C@@H]1C(=O)N2C(C(=O)O)=C(CSc3nc(=O)c(O)nn3C)CSC12)c1csc(N)n1 (some centres not stated) | % | 117 |
| CN(C)CCC=C1c2ccccc2CCc2ccccc21 | % | 91.2 |

Count: 3. Required value per item: vessel count % control.
1. O=C(O)/C=C/C(O)c1ccc(Cl)cc1 (configuration not stated)
2. NC1CCN(c2cccc(Cl)n2)CC1
3. CC(C)NCC(O)COc1ccc(CC(N)=O)cc1 (configuration not stated)

Reply text:
1. 115
2. 91.5
3. 102

Look up vessel count % control for the entries below, preserving their order.
1. NC(=O)C1=CN(C2OC(COP(=O)(O)OP(=O)(O)OC[C@H]3O[C@@H](n4cnc5c(N)ncnc54)C(OP(=O)(O)O)[C@H]3O)C(O)C2O)C=CC1 (some centres not stated)
2. CN1CCN(c2nc3cc(C(F)(F)F)ccc3n3cccc23)CC1
3. CNC1(C)C2CCC(C2)C1(C)C (configuration not stated)
4. CNCC(O)c1ccc(O)cc1 (configuration not stated)
5. CN1CCc2cc(O)c(O)cc2C(c2ccccc2)C1 (configuration not stated)
6. c1ccc2c(c1)[I+]c1ccccc1-2
7. COC(=O)[C@@H](N)CCCN=C(N)N[N+](=O)[O-]

Reply text:
101
100
107
131
107
112
95

Provide vessel count % control values for the following items, in order.
1. Nc1nc(Cl)nc2c1ncn2[C@@H]1O[C@H](COP(=O)(O)OP(=O)(O)OP(=O)(O)O)[C@H](O)C1O (some centres not stated)
2. COc1ccc2c(c1)c(CC(=O)O)c(C)n2C(=O)c1ccccc1
3. NC(=NCc1ccc(Cl)c(Cl)c1)NC(=O)c1nc(Cl)c(N)nc1N
4. CCS(=O)(=O)Nc1cccc(C(=C2CCCCC2)c2cnc[nH]2)c1
5. O=C1N=C(O)CN1/N=C/c1ccc(-c2ccc([N+](=O)[O-])cc2)o1
6. CC(C)(C)c1o[nH]c(=O)c1CC(N)C(=O)O (configuration not stated)

Reply text:
[107, 116, 108, 98.4, 90.4, 106]

Respectfully, I request vessel count % control for each entry included below.
1. O=C(O)c1cc([N+](=O)[O-])ccc1NCCCc1ccccc1
2. CC(C)NC[C@H](O)COc1cccc2ccccc12
3. CCCC[C@@]1(C2CCCC2)Cc2cc(OCC(=O)O)c(Cl)c(Cl)c2C1=O
4. Nc1nc2ccc(Cl)cc2c2nc(-c3ccco3)nn12
5. CC1=C(CC(=O)O)c2cc(F)ccc2/C1=C\c1ccc(S(C)(=O)=O)cc1
6. NCC(O)c1ccc(O)cc1 (configuration not stated)
7. O=c1c2ccccc2nc2n1CCc1c-2[nH]c2ccccc12
8. NC(=S)c1ccc[n+]([C@@H]2O[C@@H](COP(=O)([O-])OP(=O)(O)OC[C@H]3O[C@@H](n4cnc5c(N)ncnc54)C(OP(=O)(O)O)[C@H]3O)C(O)C2O)c1 (some centres not stated)

Reply text:
[92.5, 94.9, 121, 95.7, 112, 103, 64.3, 101]

Provide the reported vessel count % control of each entry below, same order.
1. COC(=O)[C@H]1[C@H]2C[C@H]3c4[nH]c5ccccc5c4CCN3C[C@H]2CC[C@@H]1O
2. C#CCn1c(=O)c2c(ncn2C)n(C)c1=O

Reply text:
110
103

The following compounds each have a reported value; give each one's vessel count % control.
1. CCCCCCCCCC[Si](C)(C)CCC(=O)NC(Cc1ccc(C)cc1)c1ccccc1 (configuration not stated)
2. O=C(O)CCc1nc(-c2ccccc2)c(-c2ccccc2)o1

Reply text:
[109, 73.7]

====

- Tested on: in vivo angiogenesis, blood vessel count
- test_method_notes: reduction of blood vessel formation in vivo – HTS, in vivo study (AID 732);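 note: zebrafish embryos dosed at one day post fertilization; 0% = reference inhibitor and 100% = plate mean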
- condition_set: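 tested at 30 µM in the well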
Active and inactive are the calls of the source. No rule for the calls is given here.
Return exactly one item of active, inactive

| compound | label |
| --- | --- |
| COCCc1ccc(OCC(O)CNC(C)C)cc1 (centres undefined) | inactive |

Inquiry: What is the recorded call for this compound in the test? "CN1CCc2ccccc2Cc2[nH]c3ccccc3c2CC1"
Reply text: inactive

Inquiry: Also need O=C(O)CCC(C(=O)O)N1C(=O)c2ccccc2C1=O (centres undefined) , thanks.
Reply text: inactive

Inquiry: Same thing, different compound: "O=C(OCCN1CCCCC1)c1c[nH]c2ccccc12"
Reply text: inactive

Inquiry: Next: Cc1ccccc1CNc1ncnc2c1ncn2C1OC(CO)C(O)C1O (centres undefined)
Reply text: inactive

Inquiry: Consider next the compound "C[C@H](Cc1ccc2c(c1)OC(C(=O)O)(C(=O)O)O2)NC[C@H](O)c1cccc(Cl)c1" in the same way.
Reply text: inactive

Inquiry: Next compound up: "C[C@@H]1O[C@H](C[N+](C)(C)C)CS1"
Reply text: inactive

Inquiry: Continue with "NC(N)=N/N=C/c1c(Cl)cccc1Cl"
Reply text: inactive

Inquiry: What would you report for CC(C)(C)c1ccc(C(O)CCCN2CCC(C(O)(c3ccccc3)c3ccccc3)CC2)cc1 (centres undefined) ?
Reply text: inactive

Inquiry: Lookup "O=C(O)C1=CCNCC1"
Reply text: inactive
